Reference source for all entries: the Human Domainome abundance scans (Beltran et al. 2025)

B1: Formin-binding protein 4, residues 593 to 636; numbered along this chain, Q8N3X1 (parent)
chain: EINATPKGWSCHWDRDHRRYFYVNEQSGESQWEFPDGEEEEEES

Variants of: B1
PROTOCOL DETAILS: abundance fitness (aPCA) (normalised: wild type 0, dead -1); higher = more abundant; growth selection in yeast, the domain comes from the species named
STUDY CONDITIONS: Homo sapiens
EXPERIMENTAL ENDPOINT: abundance fitness
Just the number, please, no unit after it.

Request: Entry R15C needs its abundance fitness filled in; supply it.
Result: -0.204

Request: Entry Q26M needs its abundance fitness filled in; supply it.
Result: -0.242

Request: Entry Q31H needs its abundance fitness filled in; supply it.
Result: -0.47

Request: Entry F21M needs its abundance fitness filled in; supply it.
Result: -0.048

Request: Entry E40Q needs its abundance fitness filled in; supply it.
Result: -0.033

Request: Entry D14R needs its abundance fitness filled in; supply it.
Result: -0.843

Request: Entry W13L needs its abundance fitness filled in; supply it.
Result: -0.46

Request: Entry S30Q needs its abundance fitness filled in; supply it.
Result: 0.15

Request: Entry E40W needs its abundance fitness filled in; supply it.
Result: -0.101

Request: Entry R19K needs its abundance fitness filled in; supply it.
Result: -0.058

Request: Entry W32I needs its abundance fitness filled in; supply it.
Result: 0.001

Request: Entry G37A needs its abundance fitness filled in; supply it.
Result: -0.032

Request: Entry H17K needs its abundance fitness filled in; supply it.
Result: 0.207

Request: Entry S10M needs its abundance fitness filled in; supply it.
Result: -0.389

Request: Entry W32R needs its abundance fitness filled in; supply it.
Result: -0.324

Request: Entry N3Y needs its abundance fitness filled in; supply it.
Result: -0.062

Request: Entry E29C needs its abundance fitness filled in; supply it.
Result: -0.575

Request: Entry D14I needs its abundance fitness filled in; supply it.
Result: -0.799

Request: Entry F34Y needs its abundance fitness filled in; supply it.
Result: -0.084

Request: Entry E42A needs its abundance fitness filled in; supply it.
Result: 0.04

Request: Entry E42S needs its abundance fitness filled in; supply it.
Result: 0.032

Request: Entry E25C needs its abundance fitness filled in; supply it.
Result: -0.355
